- experimental protocol: Phase I study: pharmacokinetics after single and multiple oral doses
- Format: in vivo
- condition description: human, plasma, po, 1000 mg, single dose 1000 mg, oral solution; read-out: t1/2 (converted)
property label: half-life (h)
Give bare numbers, in h.

Ask | Requested field: half-life. Item: CCOc1ccc(-c2ccc(Cn3c(CC(C)(C)C(=O)[O-])c(SC(C)(C)C)c4cc(OCc5ccc(C)cn5)ccc43)cc2)cn1.[Na+] [Compound 2]
Reply | 8.3

----------
- experimental protocol: Phase I study: pharmacokinetics after single and multiple oral doses
- Format: in vivo
- condition description: human, plasma, oral, 10 mg, multiple dose 10 mg, Day 11
property label: Cmax (nM)
Give bare numbers, in nM.

Ask | Requested field: Cmax. Item: CCOc1ccc(-c2ccc(Cn3c(CC(C)(C)C(=O)[O-])c(SC(C)(C)C)c4cc(OCc5ccc(C)cn5)ccc43)cc2)cn1.[Na+]
Reply | 130

Cited source for all entries: patent US8772495B2
